Molecular target: UniProt P43220
Sequence (P43220 24-463): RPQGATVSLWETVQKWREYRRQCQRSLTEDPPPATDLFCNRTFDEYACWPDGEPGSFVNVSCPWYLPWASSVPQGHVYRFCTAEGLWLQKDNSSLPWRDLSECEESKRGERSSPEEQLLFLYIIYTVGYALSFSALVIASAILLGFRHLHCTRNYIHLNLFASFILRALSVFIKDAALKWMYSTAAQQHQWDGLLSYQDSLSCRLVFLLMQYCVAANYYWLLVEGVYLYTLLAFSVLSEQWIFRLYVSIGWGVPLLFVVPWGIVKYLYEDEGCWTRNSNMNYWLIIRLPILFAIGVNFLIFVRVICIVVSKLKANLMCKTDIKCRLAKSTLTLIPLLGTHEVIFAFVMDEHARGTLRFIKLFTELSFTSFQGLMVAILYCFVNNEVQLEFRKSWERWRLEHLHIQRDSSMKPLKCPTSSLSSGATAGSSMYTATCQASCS
Assay: GLP-1R cAMP assay of peptides (Tables 10, 14, 15)
Assay type: cell-based
Conditions: Table 10; read-out: GLP-1R CAMP EC50
Readout name: EC50 (nM)
Entry rule: numbers only, all in nM.

CCc1cc(OCCCCn2cc(COCCOCCOCCOCCOCCOCCOCCOCCNC(=O)CC[C@H](N)C(=O)O)nn2)ccc1-c1ccc(C[C@H](NC(=O)[C@H](CC(=O)O)NC(=O)[C@H](CO)NC(=O)[C@@H](NC(=O)C(C)(Cc2ccccc2F)NC(=O)[C@@H](NC(=O)CNC(=O)[C@H](Cc2nn[nH]n2)NC(=O)C(C)(C)C(=O)NCCc2cnc[nH]2)[C@@H](C)O)[C@@H](C)O)C(=O)N[C@@H](CCCc2cc(C)cc(C)c2)C(=O)O)cc1 (stereo partly drawn) [Q-M6009] = 3.21

Below: the item to evaluate.
Task: For the molecule shown here, CCc1cc(OCCCCN=[N+]=[N-])ccc1-c1ccc(C[C@H](NC(=O)[C@H](CC(=O)O)NC(=O)[C@H](CO)NC(=O)[C@@H](NC(=O)C(C)(Cc2ccccc2F)NC(=O)[C@@H](NC(=O)CNC(=O)[C@H](Cc2nnn[nH]2)NC(=O)C(C)(C)C(=O)NCCc2cnc[nH]2)[C@@H](C)O)[C@@H](C)O)C(=O)O)cc1 (stereo partly drawn) [AA10-AA9-AA8-AA7-AA6-AA5-AA4-AA3-AA2-OH] , give the reported EC50.
Output: 51.2
